assay: NCI Yeast Anticancer Drug Screen. Data for the rad50 strain (AID 155);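 also: 0% = growth of vehicle-only cultures of the same strain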; conditions: S. cerevisiae rad50 strain growth inhibition; at 50.0 µM (retest, dose inferred, filed as 5.0); stronger effect = higher value
About 79,000 compounds went through this panel and 15% of them were active in at least one assay; those are over-represented in the sample as a whole.
Classification field: enter 1 (yes) for growth inhibition values not below 90%, 0 (no) for values below it.

Solved entries:
> print(dat)
                                   molecule  assigned.category
1       CCCCn1cnc2c(SCc3ccc(F)cc3)nc(N)nc21             0 (no)
2  N=C(N)c1ccc(N=Nc2cc(/C=C/c3ccccc3)ccc2O)cc1            1 (yes)

Query molecule follows.
stdin: Is growth inhibition for OC1(C2CCCCC2)c2ccccc2Cc2ccccc21 at or above 90%?
stdout: 0 (no)
